experiment: A CellTox Green Cytotoxicity Assay to monitor cytotoxicity in HepG2 cells - 32 hour (AID 1224883); conditions: CellTox Green fluorescence; series mostly up to 76.8 µM; further: nearly all actives have a fitted effect of over 50% in size
Inconclusive results are not listed. The source made the active and inactive calls. The call rests on the fitted dose curve; in most records, active means well fitted activation curve with a large enough effect in the repeat runs; inconclusive means weak or mixed curves; inactive means flat fitted curve, though single readings scatter.
Please state which outcome applies, choosing from 1 for active, 0 for inactive

Previously resolved entries follow.
O=S(=O)(O)c1ccc(N=Nc2c(O)ccc3ccccc23)cc1 ... 0
CCCC(=O)OCCc1ccccc1 ... 1
O=C(O)c1cc(O)c2ccccc2c1O ... 1
Cc1cc(-c2ccc(N=Nc3cc(S(=O)(=O)O)c4ccccc4c3N)c(C)c2)ccc1N=Nc1cc(S(=O)(=O)O)c2ccccc2c1N ... 0
FC(F)(F)c1cccc(Cl)c1 ... 0
C[Si](Cl)(c1ccccc1)c1ccccc1 ... 0
O[C@@H]([C@H](O)[C@H](O)CBr)[C@H](O)CBr ... 0
CCCc1ccc(OCC(=O)N2CCN(C(=O)COc3ccc(CCC)cc3OC)CC2)c(OC)c1 ... 1

Now consider the entry below.
Request: Please indicate how the test categorized Cc1ccc(C)cc1 .
Response: 0

---

biological target: Peroxisome proliferator-activated receptor delta (Homo sapiens); assay: qHTS assay to identify small molecule antagonists of the peroxisome proliferator-activated receptor delta (PPARd) signaling pathway (AID 743215); conditions: HEK293H PPARd-UAS-bla, beta-lactamase FRET ratio, antagonist, 17 h; series mostly up to 62 µM;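 further: cells stimulated with agonist L165041 at 300 nM final during compound exposure; on the % scale 0 is the no-effect control and ±100 the full control effect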
Inconclusive results are not listed. Calls of active or inactive are those of the source. The call rests on the fitted dose curve; in most records, active means well fitted inhibition curve with a large enough effect in the signal ratio in the repeat runs (not every such curve was filed as active); inconclusive means weak or mixed curves, or effect the other way; inactive means no such curve, though single readings can be large or run the other way; the % refers to the signal ratio.
Answer with one of the outcomes 1.0 = active, 0.0 = inactive

Consider the following illustrative entries.
COc1cc2nc(N3CCN(C(=O)c4ccco4)CC3)nc(N)c2cc1OC ... 0.0
COC(=O)Nc1nc2ccc(C(=O)c3ccccc3)cc2[nH]1 ... 0.0
Cc1c(C)c2c(c(C)c1O)CC[C@@](C)(CCC[C@H](C)CCC[C@H](C)CCCC(C)C)O2 ... 0.0
Cc1c(N)cccc1C(F)(F)F ... 0.0
CCC(COC(=O)CCS)(COC(=O)CCS)COC(=O)CCS ... 0.0
C[Si](Cl)(c1ccccc1)c1ccccc1 ... 0.0

Next up:
Request: What is the recorded call for this compound in the test? OCC(F)(F)F
Response: 0.0

---

assay: qHTS assay to identify small molecule agonists of the vitamin D receptor (VDR) signaling pathway - cell viability counter screen (AID 743224); conditions: VDR-bla HEK293T viability, CellTiter-Glo luminescence, 16 h; series mostly up to 62.6 µM; further: nearly all actives have a fitted effect of over 50% in size
Records with an inconclusive call do not appear. Activity calls are given as the source filed them. Calls follow the shape of the dose curve; as a rule, active = well fitted cell-killing curve with a large enough effect in the repeat runs; inconclusive = weak or mixed curves, or effect the other way; inactive = no such curve, though single readings can be large or run the other way.
Assign a class; possible classes are active, inactive

CCCCC(CC)CN1CN(CC(CC)CCCC)CC(C)(N)C1 (stereo not given) ... active
COc1ccc(-c2coc3cc(O)ccc3c2=O)cc1 ... inactive
C=CCCC(=O)/C=C/C1C(C)=CCCC1(C)C (stereo not given) ... inactive
Oc1ccccc1O ... inactive

Request: Which outcome did this test record for the compound O=C(O)CCN(C1(C(=O)NO)CCCC1)S(=O)(=O)c1ccc(Oc2ccc(F)cc2)cc1 ?
Response: inactive

Request: Note, next up: O=C(Nc1ccc2c(O)c(N=Nc3ccc(N=Nc4ccc(S(=O)(=O)O)cc4)cc3)c(S(=O)(=O)O)cc2c1)c1ccccc1
Response: inactive

Request: Also check CC(C)=CCNc1ncnc2c1ncn2[C@@H]1O[C@H](CO)[C@@H](O)[C@H]1O
Response: active

Request: Now give it for O=[N+]([O-])c1ccc(F)c(Cl)c1 too.
Response: inactive

Request: Please answer likewise for CCN(CCN)c1cccc(C)c1
Response: inactive

Request: Lookup CCCCC(CC)COC(=O)CCCCC(=O)OCc1ccccc1 (stereo not given)
Response: inactive

Request: Another: c1ccc(SSc2ccccc2)cc1
Response: inactive

Request: Follow-up item: Nc1cc(Cl)c(O)c(Cl)c1
Response: inactive

Request: Try this compound too: CCCCCCCC
Response: inactive

Request: Try this compound next: Cc1ccc(C)cc1
Response: inactive

Request: Try the compound O=C1CCCCCCCCCCCCCCCO1
Response: inactive

Request: Now the same for S=c1nccc[nH]1
Response: inactive

Request: # repeat for CCCCCCOC(=O)C(C)CC (stereo not given)
Response: inactive

Request: Thanks! And FC(F)(F)c1cccc(Cl)c1 ?
Response: inactive

Request: Query CC(C)=CCC1=C(O)c2ccccc2C(=O)C1=O next
Response: inactive

Request: What about O=C(O)Cc1ccccc1Nc1c(Cl)cccc1Cl ?
Response: inactive
